# Species: Rattus norvegicus
# procedure-text: Equilibrium dissociation constant based on aqueous concentration in rat smooth muscle
# Format: ADME, Muscle tissue
# pKd per entry
Lab note: report pKd as minus log10 of the concentration in molar units, number only.

{"columns": ["molecule", "pKd"],
 "data": [
  ["COC(=O)C1=C(C)NC(C)=C(C(=O)OCC(C)C)C1c1ccccc1[N+](=O)[O-] (centres undefined) [NISOLDIPINE]", 9.85]
]}

IN: For the molecule CCOC(=O)C1=C(COCCN)NC(C)=C(C(=O)OC)C1c1ccccc1Cl (centres undefined) [AMLODIPINE] , give its reported pKd.
OUT: 8.92

IN: Supply recorded pKd for COC(=O)C1=C(C)NC(C)=C(C(=O)OC)C1c1ccccc1[N+](=O)[O-] [NIFEDIPINE] here.
OUT: 9.39

IN: Output pKd of COCCOC(=O)C1=C(C)NC(C)=C(C(=O)OC(C)C)C1c1cccc([N+](=O)[O-])c1 (centres undefined) [NIMODIPINE]
OUT: 9.96

###

Attribute: Partition coefficient
# condition-description: sarcoplasmic reticulum membrane
# Description: Partition coefficient of compound in to biological membranes
Simply state the number, no unit and no words.

Consider the worked cases shown below.
{"columns": ["molecule", "reported"],
 "data": [
  ["CCOC(=O)C1=C(COCCN)NC(C)=C(C(=O)OC)C1c1ccccc1Cl (centres undefined) [AMLODIPINE]", 19000],
  ["COCCOC(=O)C1=C(C)NC(C)=C(C(=O)OC(C)C)C1c1cccc([N+](=O)[O-])c1 (centres undefined) [NIMODIPINE]", 6300],
  ["COC(=O)C1=C(C)NC(C)=C(C(=O)OCC(C)C)C1c1ccccc1[N+](=O)[O-] (centres undefined) [NISOLDIPINE]", 13000]
]}

Next, consider the following molecule.
IN: Please give the documented Partition coefficient of CC(C)NCC(O)COc1cccc2ccccc12 (centres undefined) [PROPRANOLOL]
OUT: 1200

###

Below, each entry is listed alongside its reported pKd.
# Organism: Rattus norvegicus
# procedure-text: Equilibrium dissociation constant based on membrane concentration in rat smooth muscle
# Assay type: ADME, Muscle tissue
// field semantics: pKd = negative decimal log of concentration (mol/L)

Examples from the recorded data:
{"columns": ["compound", "reported"],
 "data": [
  ["COC(=O)C1=C(C)NC(C)=C(C(=O)OC)C1c1ccccc1[N+](=O)[O-] [NIFEDIPINE]", 4.64],
  ["COCCOC(=O)C1=C(C)NC(C)=C(C(=O)OC(C)C)C1c1cccc([N+](=O)[O-])c1 (stereo not drawn) [NIMODIPINE]", 6.16]
]}

Now let's try a different one.
IN: Fill in pKd for record CCOC(=O)C1=C(COCCN)NC(C)=C(C(=O)OC)C1c1ccccc1Cl (stereo not drawn) [AMLODIPINE]
OUT: 4.64

###

# Organism: Rattus norvegicus
# procedure-text: Equilibrium dissociation constant based on membrane concentration in rat cardiac muscle
endpoint: pKd
To interpret pKd, take it as minus log10 of a concentration measured in moles per litre.

IN: Fill in pKd for record COC(=O)C1=C(C)NC(C)=C(C(=O)OCC(C)C)C1c1ccccc1[N+](=O)[O-] (stereo unspecified)
OUT: 5.74

###

# procedure-text: Partition coefficient of compound in to octanol/buffer
# Format: physicochemical
# condition-description: octanol/water
Assign criterion met whenever Partition coefficient does not fall below 30; assign criterion not met whenever it does.

IN: // inclusive: Partition coefficient at least 30? input: COCCOC(=O)C1=C(C)NC(C)=C(C(=O)OC(C)C)C1c1cccc([N+](=O)[O-])c1 (stereo unspecified)
OUT: criterion met

IN: Decide: is the reported value of Partition coefficient for `CC(C)(C)NC[C@H](O)COc1nsnc1N1CCOCC1` equal to or greater than 30?
OUT: criterion not met

IN: # check: Partition coefficient of `CN/C(=N/CCSCc1nc[nH]c1C)NC#N` is greater than or equal to 30
OUT: criterion not met

IN: Is Partition coefficient for COC(=O)C1=C(C)NC(C)=C(C(=O)OCC(C)C)C1c1ccccc1[N+](=O)[O-] (stereo unspecified) at or above 30?
OUT: criterion met

IN: Confirm if Partition coefficient reported for the molecule CC(C)NCC(O)COc1cccc2ccccc12 (stereo unspecified) is 30 or above.
OUT: criterion not met
